- test: Clearance in human
- Format: ADME
measurement-label: clearance (mL/min/kg)
Give bare numbers, in mL/min/kg.

- CCC(C)n1ncn(-c2ccc(N3CCN(c4ccc(OCC5COC(Cn6cncn6)(c6ccc(Cl)cc6Cl)O5)cc4)CC3)cc2)c1=O (configuration not stated) [ITRACONAZOLE]: 5.4

Looking up OC(Cn1cncn1)(Cn1cncn1)c1ccc(F)cc1F [FLUCONAZOLE] , I see its clearance listed as 0.9

====

Field: half-life. Provide a value for each of the compounds that follow.
- test: Half life in human
- Type: ADME
State the value, then name its unit.

- CCC(C)n1ncn(-c2ccc(N3CCN(c4ccc(OCC5COC(Cn6cncn6)(c6ccc(Cl)cc6Cl)O5)cc4)CC3)cc2)c1=O (configuration not stated) [ITRACONAZOLE]: 23 h

Turning to the following compound.
Looking up OC(Cn1cncn1)(Cn1cncn1)c1ccc(F)cc1F [FLUCONAZOLE] , I see its half-life listed as 32 h

====

- test: Fraction unbound in human
- Type: ADME
measurement-label: fraction unbound
Answers are plain numbers.

Looking up OC(Cn1cncn1)(Cn1cncn1)c1ccc(F)cc1F [FLUCONAZOLE] , I see its fraction unbound listed as 0.9
